Record form. Attribute: IC50. Fill in for each entry.
- TESTED SYSTEM: Recombinant human MAO-B (Homo sapiens)
- Sequence (P27338 whole entry): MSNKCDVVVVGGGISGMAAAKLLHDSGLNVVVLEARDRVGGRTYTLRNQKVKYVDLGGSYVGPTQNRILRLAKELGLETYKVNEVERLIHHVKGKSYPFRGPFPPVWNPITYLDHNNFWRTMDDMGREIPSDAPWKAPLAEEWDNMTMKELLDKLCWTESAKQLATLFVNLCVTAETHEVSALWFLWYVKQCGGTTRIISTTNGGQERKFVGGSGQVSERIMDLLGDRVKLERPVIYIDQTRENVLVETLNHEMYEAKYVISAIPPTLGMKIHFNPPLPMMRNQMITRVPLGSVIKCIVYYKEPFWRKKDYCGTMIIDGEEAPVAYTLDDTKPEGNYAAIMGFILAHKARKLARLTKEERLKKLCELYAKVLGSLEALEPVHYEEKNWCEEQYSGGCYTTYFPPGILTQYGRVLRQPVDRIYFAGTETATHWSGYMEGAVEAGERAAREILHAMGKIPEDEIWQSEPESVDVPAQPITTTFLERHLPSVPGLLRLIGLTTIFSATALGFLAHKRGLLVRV
- EXPERIMENT SUMMARY: Human recombinant MAO-B inhibition
- MEASUREMENT SETUP: benzylamine 100 μM
Where a name gives a salt, the structure may show the parent alone.

> print(dat)
                                   molecule                           tested.system  value.observed
1  Cc1nn(C/C(F)=C/CN)c(C(C)O)c1Cc1ccc(S(=O)(=O)N(C)C)c(Cl)c1 (single isomer, unassigned) [Compound 53, hydrochloride]  Recombinant human MAO-B (Homo sapiens)         > 30 µM
2  Cc1nn(C/C(F)=C/CN)c(C(=O)O)c1Cc1ccc(S(=O)(=O)N(C)C)cc1 [Compound 30, hydrochloride]  Recombinant human MAO-B (Homo sapiens)         > 30 µM

Turning now to a further record.
So, Cc1nn(C/C(F)=C/CN)c(C)c1Cc1ccc(S(=O)(=O)N(C)C)c2ccccc12 [Compound 9, hydrochloride] ? Its IC50 was > 10 µM

====

Record form. Attribute: IC50. Fill in for each entry.
- TESTED SYSTEM: human recombinant SSAO/VAP-1 (Homo sapiens, UniProt Q16853)
- Construct: a cloned cDNA template corresponding to residues 34-763 of human SSAO/VAP-1; TEV cleavage site (N)
- Sequence (Q16853 34-763): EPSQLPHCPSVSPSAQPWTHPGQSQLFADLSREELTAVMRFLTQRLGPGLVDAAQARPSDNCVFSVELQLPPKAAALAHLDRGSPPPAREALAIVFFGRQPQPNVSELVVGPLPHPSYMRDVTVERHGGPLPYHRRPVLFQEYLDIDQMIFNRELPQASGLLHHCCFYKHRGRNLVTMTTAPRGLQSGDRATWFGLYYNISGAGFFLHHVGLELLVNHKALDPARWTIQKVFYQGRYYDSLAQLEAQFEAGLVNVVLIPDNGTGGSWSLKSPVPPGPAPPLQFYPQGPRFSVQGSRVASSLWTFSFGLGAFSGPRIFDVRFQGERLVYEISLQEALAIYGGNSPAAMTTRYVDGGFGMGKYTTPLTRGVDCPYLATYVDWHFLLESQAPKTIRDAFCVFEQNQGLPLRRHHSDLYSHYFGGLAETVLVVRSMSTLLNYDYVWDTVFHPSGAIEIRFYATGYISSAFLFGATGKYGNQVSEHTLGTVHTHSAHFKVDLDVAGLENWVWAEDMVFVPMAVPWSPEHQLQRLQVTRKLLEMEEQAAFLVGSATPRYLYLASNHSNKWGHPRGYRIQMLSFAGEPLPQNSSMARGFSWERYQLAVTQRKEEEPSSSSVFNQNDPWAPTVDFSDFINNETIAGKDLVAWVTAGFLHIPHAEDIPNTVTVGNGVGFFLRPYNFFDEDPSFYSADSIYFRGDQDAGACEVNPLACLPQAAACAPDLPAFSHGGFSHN
- EXPERIMENT SUMMARY: Human recombinant SSAO/VAP-1 amine oxidase inhibition
- MEASUREMENT SETUP: 30 min preincubation at 37° C., 600 μM benzylamine
- Description: Method to Determine the Ability of Compounds of Formula I to Inhibit Human Recombinant SSAO/VAP-1 Human recombinant SSAO/VAP-1 amine oxidase activity was determined using the coupled colorimetric method as described for monoamine oxidase, copper-containing amine oxidases and related enzymes (Holt A. and Palcic M., A peroxidase-coupled continuous absorbance plate-reader assay for flavin monoamine oxidases, copper-containing amine oxidases and related enzymes. Nat Protoc 2006; 1: 2498-2505). […]
Where a name gives a salt, the structure may show the parent alone.

> print(dat)
                                   compound  value.observed
1  Cc1nn(C/C(F)=C/CN)c(C)c1Cc1ccc(S(C)(=O)=O)cc1 [Compound 4, hydrochloride]         > 30 µM
2  Cc1nn(Cc2cc(F)c(S(=O)(=O)N(C)C)cc2F)c(C)c1C/C(F)=C/CN [Compound 25, hydrochloride]         > 30 µM
3  CNS(=O)(=O)c1ccc(Cn2nc(C)c(C/C(F)=C/CN)c2C)cc1Cl [Compound 22, hydrochloride]         > 10 µM
4  Cc1nn(C/C(F)=C/CN)c(C)c1Cc1ccc(S(C)(=O)=O)cc1Cl [Compound 12, hydrochloride]         < 10 µM
5  Cc1nn(C/C(F)=C/CN)c(C)c1Cc1ccc(S(C)(=O)=O)c(Cl)c1 [Compound 16, hydrochloride]         > 10 µM

List the reported IC50 of each compound below.
1. Cc1nn(C/C(F)=C/CN)c(C(=O)O)c1Cc1ccc(S(=O)(=O)N(C)C)cc1 [Compound 30, hydrochloride]
2. CC(C)c1nn(C/C(F)=C/CN)c(C(C)C)c1Cc1ccc(S(=O)(=O)N(C)C)c(Cl)c1 [Compound 60, hydrochloride]

-- reply
1. > 30 µM
2. > 30 µM
